- System: MLCK;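 note: KINOMEscan kinase panel screen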
- Construct: gene MYLK3
- settings: concentration: 1 μM,replicates: in singlicate; n = 1
endpoint label: %Inh (%)
Could you give me the number in %? Just the number is fine.

Prompt: Quick check: %Inh of CN1CCN(CCCNc2nccc(-c3c(-c4ccc(F)cc4)nn4cc(C(N)=O)ccc34)n2)CC1 ?
Completion: 0

Prompt: Quick check: %Inh of COC(=O)Nc1nc2cc(Oc3ccc(NC(=O)Nc4cc(C(F)(F)F)ccc4Cl)cc3)ccc2[nH]1.Cl ?
Completion: 0

Prompt: Quick check: %Inh of Nc1nccc(-c2ccc3c(N)n[nH]c3c2)n1 ?
Completion: 96.1

Prompt: Quick check: %Inh of COc1cccc(C2=C(Nc3cccc(Cl)c3)C(=O)NC2=O)c1 ?
Completion: 0

Prompt: Quick check: %Inh of NC(=O)c1ccc(-c2cc3ncnc(SCC(=O)O)c3s2)cc1 ?
Completion: 12

Prompt: Quick check: %Inh of Cc1cccc(-c2nc(Nc3ccncc3)c3sccc3n2)n1 ?
Completion: 10

Prompt: Quick check: %Inh of CCn1c(-c2nonc2N)nc2cncc(Br)c21 ?
Completion: 28

Prompt: Quick check: %Inh of O=C(Nc1n[nH]c2cc(-c3ccco3)ccc12)C1CC1 ?
Completion: 78

Prompt: Quick check: %Inh of CCn1c(-c2nonc2N)nc2cncc(CNC3CCNCC3)c21.Cl ?
Completion: 0
